// provenance: ChEMBL document CHEMBL1134318

Assay: Maximum release of beta-hexosaminidase was determined as a measure of degranulation
Assay type: functional
Set-up: reference not given here
assayMetric: Max release (%)
Give bare numbers, in %.

Guide cases for Max release, answers given:
C[N+](C)(C)CCOC(N)=O | 87
CN1CCC=C(c2nsnc2OCCOCCOCCOCCOc2nsnc2C2=CCCN(C)C2)C1 | 43
CN1CCC=C(c2nsnc2OCCCCCCCCCCOc2nsnc2C2=CCCN(C)C2)C1 | 24

For every item below, please supply its Max release.
1. CN1CCC=C(c2nsnc2OCCCCCCCCCOc2nsnc2C2=CCCN(C)C2)C1
2. CN1CCC=C(c2nsnc2OCCOc2nsnc2C2=CCCN(C)C2)C1
3. CN1CCC=C(c2nsnc2OCCCCCCCCOc2nsnc2C2=CCCN(C)C2)C1
4. CN1CCC=C(c2nsnc2SCCCCCCCCCCCSc2nsnc2C2=CCCN(C)C2)C1

1: 61; 2: 39; 3: 1; 4: 29

====

Hi there, I'd appreciate the recorded EC50 for every entry that follows.
Target: Muscarinic acetylcholine receptor M4 (Homo sapiens, UniProt P08173)
Sequence (P08173 whole entry): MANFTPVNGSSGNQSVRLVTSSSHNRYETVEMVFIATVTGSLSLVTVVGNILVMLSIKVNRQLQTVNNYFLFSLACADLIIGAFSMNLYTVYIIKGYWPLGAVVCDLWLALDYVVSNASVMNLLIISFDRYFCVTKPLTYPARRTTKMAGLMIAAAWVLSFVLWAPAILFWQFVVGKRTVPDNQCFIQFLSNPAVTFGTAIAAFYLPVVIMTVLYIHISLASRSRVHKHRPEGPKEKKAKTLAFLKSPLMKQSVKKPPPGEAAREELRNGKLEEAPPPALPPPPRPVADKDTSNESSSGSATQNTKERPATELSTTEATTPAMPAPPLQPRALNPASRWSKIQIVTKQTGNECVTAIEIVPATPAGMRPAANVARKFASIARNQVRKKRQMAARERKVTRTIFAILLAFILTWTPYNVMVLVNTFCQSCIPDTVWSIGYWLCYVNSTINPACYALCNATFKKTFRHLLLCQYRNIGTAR
Experiment: Agonist activity against M4 muscarinic receptor expressed in RBL-2H3 Mast cells.
Assay type: functional, cell-based

CN1CCC=C(c2nsnc2OCCCCCCCOc2nsnc2C2=CCCN(C)C2)C1 | > 100 µM

Would you mind listing EC50 for each of the following molecules?
1. CN1CCC=C(c2nsnc2OCCCCCCOc2nsnc2C2=CCCN(C)C2)C1
2. CN1CCC=C(c2nsnc2OCCCCCCCCOc2nsnc2C2=CCCN(C)C2)C1

> 100 µM
> 100 µM
